# ASSAY DETAILS: Cell viability in parental Huh7.5 cells by MTS assay
# Format: cell-based
# SETUP CONDITIONS: human, parental Huh7.5 cells, Huh7.5 Cytotoxicity (%)
Listing of entries alongside the reported cytotoxicity at 42 h, 100 µM.
VALUE KIND: cytotoxicity at 42 h, 100 µM

[[record]]
given_smiles = "COc1cccc(OC)c1/C=C1\\S/C(=N/c2nnc(-c3ccc(Cl)cc3)s2)NC1=O"
value_kind = "cytotoxicity at 42 h, 100 µM"
measured_result = "> 70%"

[[record]]
given_smiles = "O=C1N/C(=N\\c2nnc(-c3ccc(Cl)cc3)s2)S/C1=C\\c1c(Cl)cccc1Cl"
value_kind = "cytotoxicity at 42 h, 100 µM"
measured_result = "> 70%"

[[record]]
given_smiles = "O=C1N/C(=N\\c2nnc(-c3ccc(Cl)cc3)s2)S/C1=C\\c1c(F)cccc1Cl"
value_kind = "cytotoxicity at 42 h, 100 µM"
measured_result = "0%"

[[record]]
given_smiles = "O=C1N/C(=N\\c2nnc(-c3ccc(Cl)cc3)s2)S/C1=C\\c1ccc(Cl)cc1Cl"
value_kind = "cytotoxicity at 42 h, 100 µM"
measured_result = "0%"

